- System: SF-295 CNS
- ASSAY NOTES: NCI-60 one-dose screen, 48 h (100 = growth as untreated, 0 = no growth, -100 = all killed)
- EXPERIMENTAL CONDITIONS: 10 µM unless noted
The panel holds about 83,000 compounds, 20% with a hit somewhere; the sample as a whole holds those more often.
READOUT KIND: growth (%)
The reply should be a number in %, with the unit left off.

Q: What does the data say about its growth? Entry: `C#CCn1cc(C=C2C(=O)N(C)C(=O)N(C)C2=O)c2cc(Cl)ccc21`
Ans: 96.4

Q: Same for OC(c1ccccc1)c1nnc(SCc2ccccc2)n1Cc1ccccc1 (stereo unspecified)
Ans: 83.4

Q: Same for `O=C(Nc1ccsc1C(=O)NC1CCCCC1)c1ccc(F)cc1`
Ans: 110

Q: Same for `O=C(/C=C/c1ccc(F)cc1)c1ccc(Nc2nc(NCCO)nc(Nc3ccc(Cl)cc3)n2)cc1`
Ans: 91

Q: Same for `CCOC(=O)C(CC(=O)O)=C(C(=O)OCC)C(=O)OCC`
Ans: 100

Consider the additional molecule presented here.
Q: What does the data say about its growth? Entry: `COc1ccc2occ(C3=C(c4c[nH]c5ccccc45)C(=O)NC3=O)c2c1`
Ans: 35.6
